Reference for the values: patent US10221163B2

# targetOrSystem: VIM-1 (Pseudomonas aeruginosa (strain ATCC 15692 / DSM 22644 / CIP 104116 / JCM 14847 / LMG 12228 / 1C / PRS 101 / PAO1))
# assay: biochemical
# experimentalContext: VIM-1 IC50, fluorescence assay, CCF2-FA substrate, 30 pM enzyme, 2 hours at 25° C.
pIC50: −log10 of the molar value. Counter-ions that a name gives are not always drawn.
// reported pIC50 per item
measuredMetric: pIC50

>  <molecule>
Nc1ccc(-c2ccc(S(=O)(=O)NCCc3ncc[nH]3)c(S(N)(=O)=O)c2-c2nn[nH]n2)cn1

>  <measuredMetric>
pIC50

>  <observedResult>
9.26

$$$$
>  <molecule>
NCc1sc(N)nc1-c1cccc(-c2ccc(S(=O)(=O)N[C@@H]3CCNC3)c(S(N)(=O)=O)c2-c2nnn[nH]2)c1

>  <measuredMetric>
pIC50

>  <observedResult>
9.41

$$$$
>  <molecule>
C[C@@H](CN)NS(=O)(=O)c1ccc(-c2cccc3[nH]c(N)nc23)c(-c2nn[nH]n2)c1S(N)(=O)=O

>  <measuredMetric>
pIC50

>  <observedResult>
9.05

$$$$
>  <molecule>
NCCNS(=O)(=O)c1ccc(-c2cccc3[nH]c([C@H](N)CO)nc23)c(-c2nn[nH]n2)c1S(N)(=O)=O

>  <measuredMetric>
pIC50

>  <observedResult>
9.51

$$$$
>  <molecule>
N[C@H](CO)c1nc2c(-c3ccc(S(=O)(=O)N[C@H]4CNC[C@H]4N)c(S(N)(=O)=O)c3-c3nn[nH]n3)cccc2[nH]1

>  <measuredMetric>
pIC50

>  <observedResult>
9.49

$$$$
>  <molecule>
NCCNS(=O)(=O)c1ccc(-c2cccc(NC[C@H](O)CN)c2)c(-c2nn[nH]n2)c1S(N)(=O)=O

>  <measuredMetric>
pIC50

>  <observedResult>
9.34

$$$$
>  <molecule>
NCCN1CC[C@@H](NS(=O)(=O)c2ccc(-c3cccc4[nH]c(N)nc34)c(-c3nn[nH]n3)c2S(N)(=O)=O)C1

>  <measuredMetric>
pIC50

>  <observedResult>
9.92

$$$$
>  <molecule>
NC[C@@]1(NS(=O)(=O)c2ccc(-c3ccc(N)nc3)c(-c3nn[nH]n3)c2S(N)(=O)=O)CCNC1 [Example 487, dihydrochloride]

>  <measuredMetric>
pIC50

>  <observedResult>
9.28

$$$$
>  <molecule>
Nc1ncccc1-c1ccc(S(=O)(=O)NC[C@@H]2CNCCN2)c(S(N)(=O)=O)c1-c1nn[nH]n1

>  <measuredMetric>
pIC50

>  <observedResult>
9.83

$$$$
>  <molecule>
CN1CC2(CCN(S(=O)(=O)c3ccc(-c4cccc5sc(N)nc45)c(-c4nnn[nH]4)c3S(N)(=O)=O)C2)C1

>  <measuredMetric>
pIC50

>  <observedResult>
8.60

$$$$
>  <molecule>
NCCNC(=O)c1cc(Cl)cc(-c2ccc(S(=O)(=O)NCCN)c(S(N)(=O)=O)c2-c2nn[nH]n2)c1N

>  <measuredMetric>
pIC50

>  <observedResult>
9.74

$$$$
>  <molecule>
Nc1nc(-c2cccc(-c3ccc(S(=O)(=O)N[C@H]4CNC[C@H]4N)c(S(N)(=O)=O)c3-c3nn[nH]n3)c2)c[nH]1

>  <measuredMetric>
pIC50

>  <observedResult>
9.19

$$$$
>  <molecule>
Nc1nc2c(-c3ccc(S(=O)(=O)N4CC[C@H](N)C4)c(S(N)(=O)=O)c3-c3nnn[nH]3)cccc2s1

>  <measuredMetric>
pIC50

>  <observedResult>
8.84

$$$$
>  <molecule>
NCc1nc2c(-c3ccc(S(=O)(=O)NC[C@@H](O)CN)c(S(N)(=O)=O)c3-c3nn[nH]n3)cccc2[nH]1

>  <measuredMetric>
pIC50

>  <observedResult>
9.76

$$$$
